Test system: SK-MEL-28
Experiment: NCI tumour cell line growth inhibition, 48 h
Active and inactive are the calls of the source. Cut-off read from the data, not from the text of the source: active = GI50 up to about 1.1 µM and inactive = higher.

{"columns": ["MOLECULE", "GI50"],
 "data": [
  ["COC(=O)C1CC2(CCC1=O)Cc1ccccc1C2=O (stereo unspecified)", "> 100 µM (inactive)"],
  ["O=C(Nc1ccccc1C(=O)Nc1nccs1)c1ccccc1", "20.7 µM (inactive)"],
  ["N=C(N)C1=C(O)NC(=O)N(C2CCCCC2)C1", "> 100 µM (inactive)"],
  ["O=[N+]([O-])/C=C\\c1c[nH]c2ccc(OCc3ccccc3)cc12", "3.03 µM (inactive)"],
  ["O=C(CCc1cc(O)ccc1O)OCCc1ccccc1", "25.1 µM (inactive)"],
  ["O=C1/C(=C/c2ccc(Cl)cc2)CCCc2ccccc21", "16.6 µM (inactive)"],
  ["COc1nc2c(c(=O)n1C)N[C@@H]1[C@@H](O)[C@H](O)CO[C@@H]1N2", "> 100 µM (inactive)"],
  ["c1ccc2c3c([nH]c2c1)[C@H]1C2CCCCN2CN1CC3 (stereo partly specified)", "> 100 µM (inactive)"],
  ["CO[C@@](c1ccccc1)(c1nc(C#N)c(N)o1)C(F)(F)F", "> 100 µM (inactive)"],
  ["CSc1nc(NC2OCC(O)C(O)C2O)c(N)c(=O)[nH]1 (stereo unspecified)", "> 100 µM (inactive)"],
  ["Cc1cc(=O)oc2c1cc(OCC(=O)OCCN1CCCCC1)c1occ(C)c12", "> 100 µM (inactive)"]
]}

----------
Test system: OVCAR-5
Test: NCI tumour cell line growth inhibition, 48 h
Calls of active or inactive are those of the source. Rule as the data show it: active = GI50 up to about 1.1 µM and inactive = higher.
Labels: active, inactive

{"columns": ["COMPOUND", "CLASS ASSIGNMENT"],
 "data": [
  ["COP1(=O)OCc2cnccc2O1 (stereo unspecified)", "inactive"],
  ["Cc1[nH]c(=O)[nH]c(=O)c1N(CCF)CCCl", "inactive"],
  ["COc1ccc(CN2C(=O)CCC/C=C\\[C@H]2CI)cc1", "inactive"],
  ["CC(=N/NC(=S)N(C)C)/C(=N\\NC(=S)N(C)C)c1ccccc1", "inactive"],
  ["COc1cccc(/C=C2\\CCCCCC2=O)c1", "inactive"],
  ["N/C(CCSCCSCC/C(N)=N\\O)=N\\O", "inactive"],
  ["COc1ccc(C2c3cc4c(cc3OC(NNS(=O)(=O)c3ccc(C)cc3)C2C)OCO4)cc1 (stereo unspecified)", "inactive"],
  ["COc1ccc(/C=C\\c2cc(OC)c(OC)c(OC)c2)cc1O", "active"],
  ["O=C1OCCC1C(O)C1c2ccccc2-c2ccccc21 (stereo unspecified)", "inactive"],
  ["CC1(C)CCC(=O)c2c(O)ccc(O)c21", "inactive"],
  ["COc1cccc(C2c3cc4c(cc3OC(NNc3ccccc3)C2C)OCO4)c1OC (stereo unspecified)", "inactive"]
]}

----------
System: HT-29
Assay: NCI tumour cell line growth inhibition, 48 h
Active and inactive are the calls of the source. No stated cut-off is given here; in the data, active = GI50 up to about 1.1 µM and inactive = higher.
Possible outcomes: active, inactive

{"columns": ["COMPOUND", "CLASS ASSIGNMENT"],
 "data": [
  ["Cn1cc(NC(=O)c2cc(NC(=O)CCCCCCC(=O)Nc3cc(C(=O)Nc4cc(C(=O)NCCC(=N)N)n(C)c4)n(C)c3)cn2C)cc1C(=O)NCCC(=N)N", "inactive"],
  ["COc1ccc(OC)c(/C=C/c2cnnc3ccccc23)c1", "inactive"],
  ["Cc1c(-c2ccccc2)c(C#N)c2nnn(C3CCCCC3)c(=O)n12", "inactive"],
  ["CC(NS(=O)(=O)c1ccc(Cl)cc1)C(=O)O (stereo not given)", "inactive"],
  ["C=C1CC2C(=O)N(c3ccccc3)C(=O)C2CC1n1[nH]c(=O)n(Cc2ccccc2)c1=O (stereo not given)", "inactive"],
  ["COc1cccc(/C=C2\\CCCCCC2=O)c1", "inactive"],
  ["C(=N/Nc1ccc(-c2nc3ccccc3[nH]2)cc1)/c1c(-c2ccccc2)[nH]c2ccccc12", "active"],
  ["NC(=O)c1ccc(/N=N/O)nc1", "inactive"],
  ["CC1(C)CCC(=O)c2c(O)ccc(O)c21", "inactive"],
  ["CC[C@@]1(OC(=O)C(N)CCCCN)C(=O)OCc2c1cc1n(c2=O)Cc2cc3ccccc3nc2-1 (stereo not given in full)", "active"]
]}
